Data origin: patent US20200405809A1

Please provide measured Synergy score for the entries that follow.
System: T47D breast cancer multicellular tumor spheroids
Assay: In vitro screen in T47D breast cancer multicellular tumor spheroids, BET inhibitor plus palbociclib
Assay type: cell-based
Details: BET inhibitor (30, 300, 3000 nM) in combination with 25 nM palbociclib; from AUC of spheroid growth curves (Chalice Analyzer)
Respond with the number and no other words.

Please look up its Synergy score: Cc1sc2c(c1C)C(c1ccc(Cl)cc1)=N[C@@H](CC(=O)OC(C)(C)C)c1nnc(C)n1-2
1.08

Entry COc1cc2c(cc1-c1c(C)noc1C)ncc1[nH]c(=O)n([C@H](C)c3ccccn3)c12 has what Synergy score?
1.09

Requested field: Synergy score. Item: Cc1cc2cc(NS(=O)(=O)c3ccccc3F)ccc2[nH]c1=O
0.79

May I ask what Synergy score has been recorded for COc1cc(OC)c2c(=O)[nH]c(-c3cc(C)c(OCCO)c(C)c3)nc2c1 [B6, RVX-208 (RVX000222 or apabetalone)] ?
0.33
